Literature pIC50 values, system: human IKK-β (Homo sapiens, UniProt O14920).
Sequence (O14920 whole entry): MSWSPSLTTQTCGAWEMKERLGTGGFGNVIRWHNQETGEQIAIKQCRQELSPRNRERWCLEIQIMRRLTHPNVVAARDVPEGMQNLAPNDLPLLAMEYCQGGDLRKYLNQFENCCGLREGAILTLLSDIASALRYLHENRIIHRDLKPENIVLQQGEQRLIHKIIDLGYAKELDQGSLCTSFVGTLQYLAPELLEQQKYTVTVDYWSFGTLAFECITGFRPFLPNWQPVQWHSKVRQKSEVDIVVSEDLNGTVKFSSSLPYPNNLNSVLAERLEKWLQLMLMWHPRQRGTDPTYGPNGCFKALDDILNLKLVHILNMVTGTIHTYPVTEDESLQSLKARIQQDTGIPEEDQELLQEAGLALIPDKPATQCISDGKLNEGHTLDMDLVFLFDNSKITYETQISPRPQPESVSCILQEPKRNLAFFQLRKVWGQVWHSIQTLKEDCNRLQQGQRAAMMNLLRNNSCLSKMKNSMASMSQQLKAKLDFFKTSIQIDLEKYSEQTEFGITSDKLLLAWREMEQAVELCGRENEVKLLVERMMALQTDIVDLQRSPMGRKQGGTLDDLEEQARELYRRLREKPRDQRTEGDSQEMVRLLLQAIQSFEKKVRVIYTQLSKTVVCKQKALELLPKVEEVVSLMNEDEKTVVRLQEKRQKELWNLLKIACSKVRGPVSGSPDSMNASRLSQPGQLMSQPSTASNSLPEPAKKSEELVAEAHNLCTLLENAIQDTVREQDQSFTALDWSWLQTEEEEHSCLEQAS
pIC50: −log10 of the molar value.
TEST_READOUT: pIC50

INSERT INTO assay_data (compound, subject_of_test, test_readout, observed) VALUES
  ('CC(C)c1cc(N2CCC(N)CC2)nc2sc(C(N)=O)c(N)c12', 'human IKK-β (Homo sapiens, UniProt O14920)', 'pIC50', '> 6.00'),
  ('N#Cc1c(C2CCCNC2)cc(-c2c(O)cccc2OCc2ccncc2)nc1N (centres unmarked)', 'human IKK-β (Homo sapiens, UniProt O14920)', 'pIC50', '> 6.30'),
  ('CC(C)NC(=O)c1cc2c(C3CCCNC3)cc(-c3c(O)cccc3OCC3CC3)nc2[nH]c1=O (centres unmarked)', 'human IKK-β (Homo sapiens, UniProt O14920)', 'pIC50', '> 6.30'),
  ('CN(C)c1ccc(-c2cc(-c3ccccc3O)nc(N)c2C#N)cc1NC(=O)CCN1CCCCC1', 'human IKK-β (Homo sapiens, UniProt O14920)', 'pIC50', '> 6.30'),
  ('N#Cc1c(C2CCCNC2)cc(-c2c(O)cccc2OCc2ccc([N+](=O)[O-])cc2)nc1N (centres unmarked)', 'human IKK-β (Homo sapiens, UniProt O14920)', 'pIC50', '> 6.30'),
  ('Cc1cc(OCC[C@H](N)C(=O)O)ccc1-c1cc(C(N)=O)c(NC(N)=O)s1', 'human IKK-β (Homo sapiens, UniProt O14920)', 'pIC50', '> 6.00'),
  ('NC(=O)c1sc2nc(N3CCC(NCC(O)c4ccc(-c5ccncc5)cc4)CC3)cc(C(F)(F)F)c2c1N (centres unmarked)', 'human IKK-β (Homo sapiens, UniProt O14920)', 'pIC50', '> 6.00'),
  ('NC(=O)Nc1sc(-c2ccc(/C=C/C[C@H](N)C(=O)O)cc2)cc1C(N)=O', 'human IKK-β (Homo sapiens, UniProt O14920)', 'pIC50', '> 6.00');

----------
pIC50: −log10 of the molar value.
Across several studies, compounds have been characterized by their pIC50 on human IKK-β (Homo sapiens); a selection follows.
TEST_READOUT: pIC50

INSERT INTO assay_data (compound, subject_of_test, test_readout, observed) VALUES
  ('NC(=O)Nc1sc(-c2ccc(/C=C/CN[C@H](C(=O)O)C3CCCCC3)cc2)cc1C(N)=O', 'human IKK-β (Homo sapiens)', 'pIC50', '> 6.00'),
  ('Nc1nc(-c2c(O)cccc2OCC2CC2)cc(C2CCCNC2)c1CNC(=O)Nc1ccccc1 (centres unmarked)', 'human IKK-β (Homo sapiens)', 'pIC50', '> 6.30'),
  ('CCOC(=O)C1CCCN(CCC(=O)Nc2cccc(-c3cc(-c4ccccc4O)nc(N)c3C#N)c2)C1 (centres unmarked)', 'human IKK-β (Homo sapiens)', 'pIC50', '5.00 to 5.70'),
  ('Nc1cccc(-c2cc(-c3ccccc3O)nc(N)c2C(=O)O)c1', 'human IKK-β (Homo sapiens)', 'pIC50', '5.00 to 5.70'),
  ('N#Cc1c(C2CCCNC2)cc(-c2c(O)cccc2OCc2ccccc2F)nc1N (centres unmarked)', 'human IKK-β (Homo sapiens)', 'pIC50', '> 6.30'),
  ('CC(C)C[C@H](NC/C=C/c1ccc(-c2cc(C(N)=O)c(NC(N)=O)s2)c(Cl)c1)C(=O)O', 'human IKK-β (Homo sapiens)', 'pIC50', '> 6.00'),
  ('N#Cc1c(C2CCCNC2)cc(-c2c(O)cccc2OCCC(c2ccccc2)c2ccccc2)nc1N (centres unmarked)', 'human IKK-β (Homo sapiens)', 'pIC50', '> 6.30'),
  ('NC(=O)c1sc2nc(N3CCC(NCC(O)c4ccc(-c5ccccn5)cc4)CC3)cc(C(F)(F)F)c2c1N (centres unmarked)', 'human IKK-β (Homo sapiens)', 'pIC50', '> 6.00');

----------
From various publications: IC50 for UniProtKB O14920.
TEST_READOUT: IC50

INSERT INTO measurements (compound, test_readout, observed) VALUES
  ('N#Cc1c(-c2ccc(N3CCCCC3)c(NC(=O)CCN3CCCCC3)c2)cc(-c2ccccc2O)nc1N', 'IC50', '2000 to 10000 nM'),
  ('NC(=O)Nc1sc(-c2ccc(N(CC[C@H](N)C(=O)OC3CCCC3)Cc3ccccc3)cc2)cc1C(N)=O', 'IC50', '< 1000 nM'),
  ('CCCc1cc(N2CCC(NCC(O)c3ccc(-c4cccnc4)cc3)CC2)nc2sc(C(N)=O)c(N)c12 (stereo not shown)', 'IC50', '< 1000 nM'),
  ('O=c1[nH]c2nc(-c3c(O)cccc3OCC3CC3)cc(C3CCCNC3)c2cc1[N+](=O)[O-] (stereo not shown)', 'IC50', '< 500 nM'),
  ('CC(C)C[C@H](N)C(=O)Nc1cc(-c2cc(-c3ccccc3O)nc(N)c2C#N)ccc1N1CCC(NC(=O)C(F)(F)F)C1 (stereo partly shown)', 'IC50', '< 500 nM'),
  ('N#Cc1c([C@@H](N)Cc2ccc(F)cc2)cc(-c2ccccc2O)nc1N', 'IC50', '< 500 nM'),
  ('N#Cc1c(-c2cccc(NC(=O)CN3CC=CC3)c2)cc(-c2ccccc2O)nc1N', 'IC50', '500 to 2000 nM');

----------
Record: compiled pIC50 on human IKK-β (Homo sapiens) from multiple reports.
pIC50: −log10 of the molar value.
TEST_READOUT: pIC50

INSERT INTO results (compound, test_readout, observed) VALUES
  ('CC(C)(C)COC(=O)N1Cc2c(C3CCCNC3)cc(-c3c(O)cccc3OCC3CC3)nc2NC1=O (stereo not shown)', 'pIC50', '> 6.30'),
  ('CCN(CCO)c1ccc(-c2cc(-c3ccccc3O)nc(N)c2C#N)cc1NC(=O)CCN', 'pIC50', '5.70 to 6.30'),
  ('N#Cc1c(C2CCCNC2)cc(-c2c(O)cccc2OCc2ccc(Br)cc2)nc1N (stereo not shown)', 'pIC50', '> 6.30'),
  ('CC(C)C[C@H](NCc1cccc(-c2cc(C(N)=O)c(NC(N)=O)s2)c1)C(=O)OC1CCCC1', 'pIC50', '> 6.00'),
  ('NC(=O)c1cnc(N2CCC3(CC2)OCc2ccccc23)c2c1[nH]c1ccc(F)cc12', 'pIC50', '≥ 6.30'),
  ('CC(C)C[C@H](NCCc1cc(-c2cc(C(N)=O)c(NC(N)=O)s2)ccc1F)C(=O)OC1CCCC1', 'pIC50', '5.30 to 6.00'),
  ('CC(C)C[C@@H](NC/C=C/c1ccc(-c2cc(C(N)=O)c(NC(N)=O)s2)cc1)C(=O)O', 'pIC50', '> 6.00');

----------
pIC50: −log10 of the molar value.
Header: pIC50 / human IKK-β (Homo sapiens, UniProt O14920) / multiple publications
TEST_READOUT: pIC50

INSERT INTO assay_data (compound, test_readout, observed) VALUES
  ('N#Cc1c(C2CCCNC2)cc(-c2c(O)cccc2OCc2ccccn2)nc1N (stereo not shown)', 'pIC50', '> 6.30'),
  ('N#Cc1c(C2CCCNC2)cc(-c2c(O)cccc2OCCc2ccccc2)nc1N (stereo not shown)', 'pIC50', '> 6.30'),
  ('CCCc1cc(N2CCC(NCC(O)COc3cccc(C#N)c3)CC2)nc2sc(C(N)=O)c(N)c12 (stereo not shown)', 'pIC50', '> 6.00'),
  ('NC(=O)Nc1sc(-c2cccc(CN[C@H](C(=O)O)c3ccccc3)c2)cc1C(N)=O', 'pIC50', '> 6.00');

----------
pIC50: −log10 of the molar value.
Let's look at some pIC50 data for human IKK-β (Homo sapiens) that I collected from the literature.
TEST_READOUT: pIC50

INSERT INTO assay_data (compound, observed) VALUES
  ('N#Cc1c(-c2cccc(N)c2)cc(-c2ccccc2O)nc1N', '5.00 to 5.70'),
  ('CCCc1cc(N2CCC(NCC(O)COCc3ccccc3)CC2)nc2sc(C(N)=O)c(N)c12 (stereo not drawn)', '> 6.00'),
  ('N#Cc1c(-c2cccc(NC(=O)C[C@H](N)C(=O)O)c2)cc(-c2ccccc2O)nc1N', '5.70 to 6.30'),
  ('CNCCNc1cc(-c2ccccc2O)nc(N)c1C#N', '> 6.30'),
  ('COc1cccc(O)c1-c1cc(-c2cccc(NC(=O)C3CCC(=O)O3)c2)c(C#N)c(N)n1 (stereo not drawn)', '5.70 to 6.30'),
  ('N#Cc1c(C2CCCNC2)cc(-c2c(O)cccc2OCC2CCCO2)nc1N (stereo not drawn)', '> 6.30'),
  ('N#Cc1cccc(COc2cccc(O)c2-c2cc(C3CCCNC3)c(C#N)c(N)n2)c1 (stereo not drawn)', '> 6.30'),
  ('N#Cc1c(C2CCCNC2)cc(-c2cccc(Cl)c2O)nc1N (stereo not drawn)', '> 6.30'),
  ('N#Cc1c(C2CCCNC2)cc(-c2c(O)cccc2OCCCc2ccccc2)nc1N (stereo not drawn)', '> 6.30'),
  ('N#Cc1c(C2CCC(C(=O)O)CC2)cc(-c2ccccc2O)nc1N (stereo not drawn)', '> 6.30'),
  ('CCCc1cc(N2CCC(NCC(O)Cc3cccc(C(N)=O)c3)CC2)nc2sc(C(N)=O)c(N)c12 (stereo not drawn)', '> 6.00'),
  ('CC(C)C[C@H](N)C(=O)Nc1ccc(F)c(-c2cc(-c3ccccc3O)nc(N)c2C#N)c1', '5.70 to 6.30'),
  ('CC(C)C[C@H](NCCCOc1ccc(-c2cc(C(N)=O)c(NC(N)=O)s2)cc1)C(=O)OC1CCCC1', '5.30 to 6.00'),
  ('N#Cc1c(N2CCCNCC2)cc(-c2ccccc2O)nc1N', '5.70 to 6.30'),
  ('CC(C)(C)OC[C@H](NC/C=C/c1ccc(-c2cc(C(N)=O)c(NC(N)=O)s2)cc1)C(=O)OC1CCCC1', '> 6.00'),
  ('CCN1CCN(c2ccc(Nc3ncc(C)c(Nc4ccc5cn[nH]c5c4)n3)c(OC)c2)CC1', '< 6.00'),
  ('CCCc1cc(N2CCC(NCC(O)C(=O)Nc3ccccc3)CC2)nc2sc(C(N)=O)c(N)c12 (stereo not drawn)', '> 6.00'),
  ('CCCc1cc(N2CCC(NCC(O)CNc3ccccc3)CC2)nc2sc(C(N)=O)c(N)c12 (stereo not drawn)', '> 6.00');
